For each record, write down the corresponding pIC50.
- SYSTEM_TESTED: cortisol synthase (CYP11B1) (Macaca fascicularis, UniProt A0A2K5ULY1)
One number for each entry, as −log10 of the molar value.

Please state pIC50 for every compound in the list that follows.
1. N#CC1(c2cncc(C3COc4c(cccc4C(N)=O)O3)c2)CC1 (single isomer, unassigned) [Cpd 2A]
2. Cc1c(C(C)O)cncc1C1COc2c(cccc2C(N)=O)O1 (single isomer, unassigned) [Cpd 27A]
3. NC(=O)c1cccc2c1OCC(c1cncc(C(F)F)c1)O2 (single isomer, unassigned) [Cpd 22B]
4. CC(=O)N1CCC[C@@H](Oc2cncc(C3COc4c(cccc4C(N)=O)O3)c2)C1 (single isomer, unassigned) [Cpd 7B]
5. NC(=O)c1cccc2c1OCC(c1cncc(O[C@@H]3CCOC3)c1)O2 (single isomer, unassigned) [Cpd 46B]
6. Cc1c(C#N)cncc1C1COc2c(cccc2C(N)=O)O1 (single isomer, unassigned) [Cpd 61B]
7. CC(=O)N1CC(Oc2cncc(C3COc4c(cccc4C(N)=O)O3)c2)C1 (single isomer, unassigned) [Cpd 19B]

-- reply
7.22
5.55
5.64
4.72
5.38
4.66
4.62

====

Provide the reported pIC50 of each item.
- SYSTEM_TESTED: cortisol synthase (CYP11B1) (Macaca fascicularis)
Numbers only, as −log10 of the molar value.

-- ask Query (compound): C[C@H](O)c1c(F)cncc1C1COc2c(cccc2C(N)=O)O1 (single isomer, unassigned) [Cpd 56B] ; field requested: pIC50
-- reply 4.85

-- ask Check N#Cc1cccc2c1OCC(c1cncc(CNC(=O)C(F)(F)F)c1)O2 (stereo not drawn) [Cpd 53] too.
-- reply 4.62

-- ask Also check CN(Cc1cncc(C2COc3c(cccc3C(N)=O)O2)c1)C(=O)C1CC1 (single isomer, unassigned) [Cpd 24A]
-- reply 5.15

-- ask How about this compound: CN(C)C(=O)COCc1cncc(C2COc3c(cccc3C(N)=O)O2)c1 (single isomer, unassigned) [Cpd 25B]
-- reply 4.82

-- ask Try this compound next: Cc1c(C#N)cncc1C1COc2c(cccc2C(N)=O)O1 (single isomer, unassigned) [Cpd 61A]
-- reply 4.60

Please look at the following compound next.
-- ask Item under review: CC(=O)N1CC[C@@H](Oc2cncc(C3COc4c(cccc4C(N)=O)O3)c2)C1 (single isomer, unassigned) [Cpd 18A] . Reported pIC50?
-- reply 4.80

====

- SYSTEM_TESTED: cortisol synthase (CYP11B1) (Macaca fascicularis, UniProt A0A2K5ULY1)
Task for the reader: assign each of the following compounds its reported pIC50.
Numbers only, as −log10 of the molar value.

Answer for every listed entry: what is its pIC50? The entries follow.
1. NC(=O)c1cccc2c1OCC(c1cncc3c1CCC3O)O2 (single isomer, unassigned) [Cpd 52AA]
2. NC(=O)c1cccc2c1OCC(c1cncc(C(O)C(F)(F)F)c1)O2 (single isomer, unassigned) [Cpd 49AA]
3. NC(=O)c1cccc2c1OCC(c1cncc(C(F)(F)F)c1)O2 (single isomer, unassigned) [Cpd 9B]
4. CC(=O)N1CCC(Oc2cncc(C3COc4c(cccc4C(N)=O)O3)c2)CC1 (single isomer, unassigned) [Cpd 12A]

-- reply
5.39
5.49
5.66
4.74

Dear colleague, could you please provide pIC50 for the compounds listed below?
1. N#Cc1cccc2c1OCC(c1cncc(CNC(=O)C3CC3)c1)O2 (single isomer, unassigned) [Cpd 39A]
2. NC(=O)c1cccc2c1OCC(c1cccnc1)O2 (single isomer, unassigned) [Cpd 4A]

-- reply
1: 5.14; 2: 5.51

Please give pIC50 for each item listed below.
1. NC(=O)c1cccc2c1OCC(c1cncc(CN3CCCC3=O)c1)O2 (single isomer, unassigned) [Cpd 5B]
2. C[C@@H](O)c1c(F)cncc1C1COc2c(cccc2C(N)=O)O1 (single isomer, unassigned) [Cpd 57A]
3. Cc1ccncc1C1COc2c(cccc2C(N)=O)O1 (single isomer, unassigned) [Cpd 23A]

-- reply
[4.66, 4.80, 5.85]

Required: pIC50, one value per compound below.
1. N#Cc1cccc2c1OCC(c1cncc(CN3CCOCC3=O)c1)O2 (single isomer, unassigned) [Cpd 36B]
2. CC(C)(O)c1c(F)cncc1C1COc2c(cccc2C(N)=O)O1 (single isomer, unassigned) [Cpd 58B]
3. Cc1cncc(C2COc3c(cccc3C(N)=O)O2)c1 (single isomer, unassigned) [Cpd 59A]

-- reply
5.24
5.52
5.96

Measured values drawn from patent US9745289B2 for this set.
